Value source: ChEMBL document CHEMBL1151952

Test system: Mycobacterium intracellulare
Experiment: Antibacterial activity against Mycobacterium intracellular ATCC 23068 after 68 to 72 hrs by alamar blue assay
Assay type: functional, organism-based
MEASURE: IC50

INSERT INTO results (compound, target_or_test_system, observed) VALUES
  ('CCCCCc1cc(O)c(C/C=C(\C)CCC=C(C)C)c(OC(C)=O)c1O', 'Mycobacterium intracellulare', 'Not Active'),
  ('CCCCCc1c(C/C=C(\C)CCC=C(C)C)c(O)cc(O)c1OC(C)=O', 'Mycobacterium intracellulare', 'Not Active'),
  ('C=C(C)C(O)CCC1(C)C=Cc2c(O)cc(CCCCC)cc2O1 (racemic)', 'Mycobacterium intracellulare', 'Not Active'),
  ('CCCCCc1cc2c(c(O)c1C(=O)O)-c1cc(C)c(O)cc1C(C)(C)O2 [8-HYDROXYCANNABINOLIC ACID A]', 'Mycobacterium intracellulare', 'Not Active');
